- Tested on: CD3
- Sequence (P07766 23-126): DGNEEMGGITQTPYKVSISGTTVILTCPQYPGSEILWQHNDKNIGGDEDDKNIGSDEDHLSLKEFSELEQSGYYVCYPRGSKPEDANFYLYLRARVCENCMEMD
- Assay summary: Octet, crude lysate
pKd: −log10 of the molar value.
Reported pKd by item:
Measured quantity: pKd

| Binder | Measured |
| --- | --- |
| AC3423 (bispecific antibody, V domains shown) VH: EVQLLESGGGIVQPGGSLKLSCAASGFTFNTYAMNWVRQAPGKGLEWVARIRSKYNNYATYYPDSVKDRFTISRDDSKNTVYLQMNNLKTEDTAVYYCVRHENFGNSYVSWFAHWGQGTLVTVSS VL: ELVVTQEPSLTVSPGGTVTLTCRSSNGAVTSSNYANWVQQKPGQAPRGLIGGTNKRAPGTPARFSGSLLGGKAALTLSGVQPEDEAVYYCALWYPNLWVFGGGTKLTVL | 8.09 |
| AC3377 (bispecific antibody, V domains shown) VH: EVQLLESGGGIVQPGGSLKLSCAASGFTFNTYAMNWVRQAPGKGLEWVGRIRSKYNNYATYYADSVKDRFTISRDDSKNTVYLQMNNLKTEDTAVYYCVRHENFGNSYVSWFAHWGQGTLVTVSS VL: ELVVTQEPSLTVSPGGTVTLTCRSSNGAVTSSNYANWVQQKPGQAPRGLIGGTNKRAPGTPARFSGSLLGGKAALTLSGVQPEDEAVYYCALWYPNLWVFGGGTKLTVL | 8.35 |
| AC3389 (bispecific antibody, V domains shown) VH: EVQLLESGGGIVQPGGSLKLSCAASGFTFNTYAMNWVRQAPGKGLEWVARIQSKYNNYATYYADSVKDRFTISRDDSKNTVYLQMNNLKTEDTAVYYCVRHENFGNSYVSWFAHWGQGTLVTVSS VL: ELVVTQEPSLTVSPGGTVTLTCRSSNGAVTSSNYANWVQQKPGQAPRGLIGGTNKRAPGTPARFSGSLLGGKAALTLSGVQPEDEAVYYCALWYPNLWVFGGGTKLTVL | 6.36 |
| AC3401 (bispecific antibody, V domains shown) VH: EVQLLESGGGIVQPGGSLKLSCAASGFTFNTYAMNWVRQAPGKGLEWVARIRSKKNNYATYYADSVKDRFTISRDDSKNTVYLQMNNLKTEDTAVYYCVRHENFGNSYVSWFAHWGQGTLVTVSS VL: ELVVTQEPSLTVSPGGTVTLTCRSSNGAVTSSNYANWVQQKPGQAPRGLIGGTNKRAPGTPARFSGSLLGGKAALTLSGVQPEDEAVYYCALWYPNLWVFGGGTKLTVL | 8.29 |
| AC3414 (bispecific antibody, V domains shown) VH: EVQLLESGGGIVQPGGSLKLSCAASGFTFNTYAMNWVRQAPGKGLEWVARIRSKYNNYATDYADSVKDRFTISRDDSKNTVYLQMNNLKTEDTAVYYCVRHENFGNSYVSWFAHWGQGTLVTVSS VL: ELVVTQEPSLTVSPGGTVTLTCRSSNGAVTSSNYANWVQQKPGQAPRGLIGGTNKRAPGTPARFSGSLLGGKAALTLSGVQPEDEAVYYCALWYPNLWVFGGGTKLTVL | 6.03 |
